Origin of the recorded values: ChEMBL document CHEMBL1122004

# PROTOCOL: Alpha-1 adrenergic receptor activation causing vasoconstriction in the isolated rabbit ear artery
# Type: functional, tissue-based
# TEST CONDITIONS: Oryctolagus cuniculus
READOUT KIND: pEC50
Please express pEC50 as -log10 of the molar concentration.

Solved entries (count: 3):
COMPOUND	pEC50
CCNC1CCc2c(Sc3ccccc3)ccc(OC)c2C1 (stereo not drawn)	6.15
CNC1CCc2c(OC)ccc(OC)c2C1 (stereo not drawn)	7.07
COc1cccc2c1CCC(N)C2 (stereo not drawn)	5.66

Look up pEC50: CCNC1CCc2c(OC)ccc(SC)c2C1 (stereo not drawn)
6.85

Look up pEC50: CCCNC1CCc2c(OC)ccc(OC)c2C1 (stereo not drawn)
5.96

Look up pEC50: CCNC1CCc2c(I)ccc(OC)c2C1 (stereo not drawn)
7.68

Look up pEC50: COc1ccc(SC)c2c1CC(N)CC2 (stereo not drawn)
7.92

Look up pEC50: COc1ccc(Cl)c2c1CCC(N)C2 (stereo not drawn)
6.64

Look up pEC50: CCNC1CCc2c(OC)ccc(OC)c2C1 (stereo not drawn)
7.09

Look up pEC50: COc1ccc(OC)c(C(O)C(C)N)c1 (stereo not drawn) [METHOXAMINE]
6.14

Look up pEC50: Cc1ccc(C)c2c1CCC(N)C2 (stereo not drawn)
5.00

Look up pEC50: CCNC1CCc2c(OC)ccc(Cl)c2C1 (stereo not drawn)
7.19

Look up pEC50: COc1cccc2c1CC(N)CC2 (stereo not drawn)
5.77

Look up pEC50: COc1ccc(SC)c2c1CC(N(C)C)CC2 (stereo not drawn)
7.85

Look up pEC50: CCNC1CCc2c(N)ccc(OC)c2C1 (stereo not drawn)
5.28

Look up pEC50: COc1ccc(OC)c2c1CCC(N)C2 (stereo not drawn)
6.92

Look up pEC50: NC[C@H](O)c1ccc(O)c(O)c1 [NOREPINEPHRINE]
6.82

Look up pEC50: CCNC1CCc2c(OC)ccc(I)c2C1 (stereo not drawn)
7.19

Look up pEC50: CCNC1CCc2c(SC)ccc(OC)c2C1 (stereo not drawn)
7.59

Look up pEC50: COc1ccc(OC)c2c1CCC(N(C)C)C2 (stereo not drawn)
7.09
